Target: Leucine aminopeptidase (Plasmodium falciparum (isolate 3D7))
Test: P. falciparum M17LAP inhibitors, primary screen, biochemical, fluorogenic H-Leu-NHMec substrate, 1536-well (AID 1619);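 further: plate controls were full reaction with DMSO carrier for no effect and no enzyme background for full effect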
Details: recombinant M17LAP, H-Leu-NHMec fluorogenic kinetic assay; at 30 µM; active compounds read high
The campaign covered roughly 220,000 compounds. About 830 (0.38%) were called active. Not all results are given here. Entries with a potency or affinity are not part of this list.
Provide the recorded inhibition for the entries that follow.

Value (inhibition, Leucine aminopeptidase (Plasmodium falciparum (isolate 3D7))) for record CCOc1ccc(C2=Nn3c(nnc3-c3ccccc3OC)SC2)cc1 = 8.39% (inactive)

Sample COc1ccc(C2=Nn3c(nnc3-c3ccccc3OC)SC2)cc1OC , system: Leucine aminopeptidase (Plasmodium falciparum (isolate 3D7)). Its inhibition is 26.3% (inactive)

Form field, inhibition with Leucine aminopeptidase (Plasmodium falciparum (isolate 3D7)), item C/C(=C\c1ccco1)C1C(C#N)=C(N)OC2=C1C(=O)CC(C)(C)C2 (stereo unspecified) : 5.9% (inactive)

// inhibition (Leucine aminopeptidase (Plasmodium falciparum (isolate 3D7))) for O=C(O)COc1ccc(NC(=O)c2cccs2)cc1 = 16.1% (inactive)

Noted inhibition for Cc1cccc(Oc2ccc(NC(=O)c3ccccc3C(=O)O)cc2)c1 , tested on Leucine aminopeptidase (Plasmodium falciparum (isolate 3D7)): 2.06% (inactive)

CCCc1[nH]nc2c1C(/C(C)=C/c1ccccc1)C(C#N)=C(N)O2 (stereo unspecified) tested on Leucine aminopeptidase (Plasmodium falciparum (isolate 3D7)) gave inhibition: 6.81% (inactive)

Sample COc1cccc(CNc2nc3nc(C)cc(=O)n3[nH]2)c1 , system: Leucine aminopeptidase (Plasmodium falciparum (isolate 3D7)). Its inhibition is -3.52% (inactive)

GET /values?item= Cc1ccc(SCc2[nH]nc3c2C(c2ccco2)C(C#N)=C(N)O3)cc1 (stereo unspecified) &system= Leucine aminopeptidase (Plasmodium falciparum (isolate 3D7)) returns inhibition: 44.8% (inactive)

Entry COc1ccc(NC(=O)c2cccs2)cc1 ; assay system Leucine aminopeptidase (Plasmodium falciparum (isolate 3D7)); inhibition recorded at -8.71% (inactive)

The molecule O=C1c2ccccc2C(=O)N1/N=C/c1ccc(O)c(O)c1O on Leucine aminopeptidase (Plasmodium falciparum (isolate 3D7)): inhibition was 9.31% (inactive)

The molecule O=C(Cc1csc(N2CCOCC2)n1)N/N=C/c1ccc(F)cc1 , when measured on Leucine aminopeptidase (Plasmodium falciparum (isolate 3D7)), yielded inhibition of 45.5% (inactive)

====

Target: Leucine aminopeptidase (Plasmodium falciparum (isolate 3D7)) (UniProt Q8IL11)
Sequence (Q8IL11 whole entry, looked up): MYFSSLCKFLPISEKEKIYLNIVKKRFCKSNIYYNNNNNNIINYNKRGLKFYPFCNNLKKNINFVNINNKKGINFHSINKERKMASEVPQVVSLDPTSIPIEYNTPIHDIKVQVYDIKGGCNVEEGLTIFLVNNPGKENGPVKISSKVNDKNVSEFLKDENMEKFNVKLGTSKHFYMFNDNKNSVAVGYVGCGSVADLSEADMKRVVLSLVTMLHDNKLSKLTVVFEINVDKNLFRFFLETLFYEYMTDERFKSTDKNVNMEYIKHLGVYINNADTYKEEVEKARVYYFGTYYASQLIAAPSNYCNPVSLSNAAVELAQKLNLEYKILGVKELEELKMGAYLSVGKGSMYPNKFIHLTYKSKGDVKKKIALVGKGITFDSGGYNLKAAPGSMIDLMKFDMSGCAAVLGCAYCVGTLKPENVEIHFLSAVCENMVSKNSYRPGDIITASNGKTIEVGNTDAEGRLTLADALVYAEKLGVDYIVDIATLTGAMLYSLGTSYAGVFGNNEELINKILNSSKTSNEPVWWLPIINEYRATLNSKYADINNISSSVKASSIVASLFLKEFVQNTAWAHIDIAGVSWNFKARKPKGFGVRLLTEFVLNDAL
Experiment: P. falciparum M17LAP inhibitors, primary screen, biochemical, fluorogenic H-Leu-NHMec substrate, 1536-well (AID 1619);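 further: plate controls were full reaction with DMSO carrier for no effect and no enzyme background for full effect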
Details: recombinant M17LAP, H-Leu-NHMec fluorogenic kinetic assay; at 30 µM; active compounds read high
Out of some 220,000 compounds screened, about 830 (0.38%) were called active. The list is a sample of the results. Potency and affinity values are given separately.
For each record, write down the corresponding inhibition.
State just the number; it will be interpreted in %.

Memo: O=c1[nH]cnc2scc(-c3cccs3)c12 , reported inhibition: -7.24

Lab note: CCOC(=O)c1c(N)sc2c1CCC(CC)C2 (configuration not stated) gave inhibition of -12.2

// recorded inhibition for COc1ccc(OC)c(NC(=O)c2ccc(CSc3nnc(C)s3)cc2)c1 : -1.27

Short answer for Cc1nn(C)cc1CN(C)C(=O)c1cc(COc2ccc(F)cc2F)on1 : inhibition was -16.1

Reported inhibition for CCOC(=O)c1c(NC(=O)c2ccc(N3C(=O)C4C5C=CC(C5)C4C3=O)cc2)sc2c1CCCC2 (configuration not stated) was -6.59

Per the records, this compound ( CCOC(=O)c1c(-c2cccc([N+](=O)[O-])c2)csc1NC(=O)C1CC1 ) has inhibition equal to -5.68

Consider O=Nc1c(O)n(Cc2ccc(Cl)cc2Cl)c2ccccc12 . Its measured inhibition is -0.24

// recorded inhibition for CCOC(=O)c1c(NC(=O)C2C3CCC(O3)C2C(=O)O)sc2c1CCC(CC)C2 (configuration not stated) : 7.12

For COC(=O)c1c(-c2ccc(C)cc2)csc1NC(=S)NC(=O)c1ccc(F)cc1 the compound record lists inhibition as -17.5

For this compound ( COc1ccc(S(=O)(=O)NCCc2ccccc2)cc1 ), measured inhibition is -1.2

# inhibition of CCOC(=O)c1c(NC(=S)Nc2ccccc2)sc2c1CCCCC2 = 3.6

The compound CC(C)(C)c1cc(C(=O)O)n(Cc2ccc(Cl)cc2Cl)n1 showed inhibition equal to -0.53

Just so you know, measured inhibition for CCOC(=O)c1c(NS(C)(=O)=O)sc2c1CCC(C)C2 (configuration not stated) came out at 8.14

Item: O=C(O)C(Cc1ccccc1)N1Cc2ccccc2C1=O (configuration not stated) | inhibition: -1.49

Measured inhibition, COc1ccc(OCC#CCN2CC(C)OC(C)C2)cc1 (configuration not stated) : -3.27

inhibition reading for CCOC(=O)c1c(NC(=O)C2C3C=CC(C3)C2C(=O)O)sc2c1CCCC2 (configuration not stated) : 42

Item: N=C1/C(=C\c2ccc(-c3ccc(C(=O)O)cc3)o2)C(=O)N=C2SC=C(c3ccccc3)N12 | inhibition: 23.3

Looking up O=C(CSc1ccc2nnc(-c3ccccn3)n2n1)Nc1ccc2c(c1)OCO2 , I see its inhibition listed as 7.14

Please fill in: inhibition reported for Cc1ccc(NC(=O)COC(=O)Cc2csc(-c3ccc(Cl)cc3)n2)cc1C = 5.09

The measured inhibition associated with CS(=O)(=O)C1=NSC2=NC(=O)/C(=C\c3ccc(-c4ccccc4)o3)C(=N)N21 reads 55.5

Please fill in: inhibition reported for CC1=C(C(N)=O)C(c2ccccc2)n2nc(-c3cccs3)nc2N1 (configuration not stated) = -4.69

Short answer for CS(=O)(=O)CCC(C(=O)N1CCOCC1)N1C(=O)c2cc(Cl)c(Cl)cc2C1=O (configuration not stated) : inhibition was 6.46

====

Provide the recorded inhibition for the entries that follow.
Target: Leucine aminopeptidase (Plasmodium falciparum (isolate 3D7)) (UniProt Q8IL11)
Assay: P. falciparum M17LAP inhibitors, primary screen, biochemical, fluorogenic H-Leu-NHMec substrate, 1536-well (AID 1619);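 further: plate controls were full reaction with DMSO carrier for no effect and no enzyme background for full effect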
Settings: recombinant M17LAP, H-Leu-NHMec fluorogenic kinetic assay; at 30 µM; active compounds read high
In all, about 220,000 compounds went through this assay and about 830 (0.38%) were called active. These entries were drawn from the full list. Entries with a potency or affinity are not part of this list.
Your answer should be a plain number; it is taken to be in %.

get_value(item= Cc1ccccc1NC(=O)CSc1ccsc1[N+](=O)[O-] , readout=inhibition) returns 8.37

The value of inhibition measured for the compound COC(=O)[C@@]1(Cc2ccc(F)cc2)[C@H]2c3cc(C(=O)N(C)C)n(Cc4c(CO)[nH]cc(C)c4=O)c3C[C@H]2CN1C(=O)c1ccccc1 turned out to be 6.87

GET /value?item= COc1ccc(-c2noc(CSc3nc(N)c(-c4ccccc4)c(=O)[nH]3)n2)cc1 &field=inhibition returns 10.2

// Nc1nc(SCC(=O)Nc2ccc(Cl)cc2)[nH]c(=O)c1-c1ccccc1 : inhibition value = 13.7

// field: inhibition; key: Nc1nc(SCC(=O)Nc2ccccc2)[nH]c(=O)c1-c1ccccc1 ; value = 8.35

====

For each record, write down the corresponding inhibition.
Target: Leucine aminopeptidase (Plasmodium falciparum (isolate 3D7)) (UniProt Q8IL11)
Experiment: P. falciparum M17LAP inhibitors, primary screen, biochemical, fluorogenic H-Leu-NHMec substrate, 1536-well (AID 1619);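 further: plate controls were full reaction with DMSO carrier for no effect and no enzyme background for full effect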
Details: recombinant M17LAP, H-Leu-NHMec fluorogenic kinetic assay; at 30 µM; active compounds read high
In all, about 220,000 compounds went through this assay and about 830 (0.38%) were called active. A selection follows. Measured potencies and affinities stand elsewhere.
Answer with a number only, understood to be in %.

Given the molecule O=C(COC(=O)c1cccc(S(=O)(=O)N2CCOCC2)c1)Nc1ncc(C(F)(F)F)cc1Cl and test system Leucine aminopeptidase (Plasmodium falciparum (isolate 3D7)) (UniProt Q8IL11), the measured inhibition is 4.29

Case O=C(Nc1nc2cc3c(cc2s1)OCCO3)c1ccc(N2C(=O)CCC2=O)cc1 , Leucine aminopeptidase (Plasmodium falciparum (isolate 3D7)) (UniProt Q8IL11), inhibition recorded as 0.52

The observed inhibition for CCN(C(=O)CSc1nnc2ccccn12)c1c(N)n(Cc2ccccc2)c(=O)[nH]c1=O when tested with Leucine aminopeptidase (Plasmodium falciparum (isolate 3D7)) (UniProt Q8IL11) stands at 12.8

Value sought: inhibition, system Leucine aminopeptidase (Plasmodium falciparum (isolate 3D7)) (UniProt Q8IL11), item CCc1nc(Sc2nc(C)cc(C)n2)c2oc3ccccc3c2n1 . Result: -4.31

Value sought: inhibition, system Leucine aminopeptidase (Plasmodium falciparum (isolate 3D7)) (UniProt Q8IL11), item Cc1cccc(NC(=O)Nc2ccc3c(c2)N(C)C(=O)CS3)n1 . Result: 3.25
